Readings of viscosity for the listed compounds
assayMethodText: mn = molality of the nth substance listed, in mol/kg
conditionDescription: 288.15 K; 100 kPa; Liquid; Capillary tube (Ostwald / Ubbelohde) method; m1 = 1
# number only, unit mPa·s dropped from output

O=P([O-])(O)O.[K+] [monopotassium phosphate] + O | 1.539
O=P([O-])([O-])[O-].[K+].[K+].[K+] [tripotassium phosphate] + O | 1.7
O=P([O-])(O)O.[Na+] [sodium dihydrogen phosphate] + O | 1.731

# evaluate next
Inquiry: Given the compound N.O=P(O)(O)O [ammonium dihydrogen phosphate] + O , what is its reported viscosity?
Reply text: 1.472

====

Entries annotated with measured viscosity
assayMethodText: mn = molality of the nth substance listed, in mol/kg
conditionDescription: 318.15 K; 100 kPa; Liquid; Capillary tube (Ostwald / Ubbelohde) method; m1 = 1
Numeric answer only, unit mPa·s assumed.

N.O=P(O)(O)O [ammonium dihydrogen phosphate] + O | 0.741
O=P([O-])(O)O.[Na+] [sodium dihydrogen phosphate] + O | 0.875
O=P([O-])([O-])[O-].[K+].[K+].[K+] [tripotassium phosphate] + O | 0.838

From here, focus on the item given below.
Inquiry: Reported viscosity for O=P([O-])(O)O.[K+] [monopotassium phosphate] + O : what is it?
Reply text: 0.763

====

assayMethodText: mn = molality of the nth substance listed, in mol/kg
conditionDescription: 318.15 K; 100 kPa; Liquid; Capillary tube (Ostwald / Ubbelohde) method; m1 = 0.5
Each entry below carries its recorded viscosity.
# output: bare number, implied unit mPa·s

Examples with answers:
O=P([O-])([O-])[O-].[K+].[K+].[K+] [tripotassium phosphate] + O | 0.708
O=P([O-])(O)O.[K+] [monopotassium phosphate] + O | 0.666
O=P([O-])(O)O.[Na+] [sodium dihydrogen phosphate] + O | 0.723

Next:
Inquiry: Which viscosity is listed for N.O=P(O)(O)O [ammonium dihydrogen phosphate] + O ?
Reply text: 0.659

====

Property: viscosity; scope: individual compounds
assayMethodText: mn = molality of the nth substance listed, in mol/kg
conditionDescription: 308.15 K; 100 kPa; Liquid; Capillary tube (Ostwald / Ubbelohde) method; m1 = 1
Reply with just the number (in mPa·s).

O=P([O-])([O-])[O-].[K+].[K+].[K+] [tripotassium phosphate] + O | 1.09
N.O=P(O)(O)O [ammonium dihydrogen phosphate] + O | 0.942
O=P([O-])(O)O.[K+] [monopotassium phosphate] + O | 0.939

Here is the next item to consider.
Inquiry: Name the reported viscosity value associated with the compound O=P([O-])(O)O.[Na+] [sodium dihydrogen phosphate] + O
Reply text: 1.074

====

assayMethodText: mn = molality of the nth substance listed, in mol/kg
conditionDescription: 298.15 K; 100 kPa; Liquid; Capillary tube (Ostwald / Ubbelohde) method; m1 = 1
Overview of recorded viscosity for various compounds
Value expressed in mPa·s; do not type the unit.

O=P([O-])(O)O.[K+] [monopotassium phosphate] + O | 1.159

Inquiry: Tell me the measured viscosity of O=P([O-])([O-])[O-].[K+].[K+].[K+] [tripotassium phosphate] + O , please.
Reply text: 1.349

Inquiry: Then this compound: O=P([O-])(O)O.[Na+] [sodium dihydrogen phosphate] + O
Reply text: 1.332

Inquiry: Also N.O=P(O)(O)O [ammonium dihydrogen phosphate] + O , if possible.
Reply text: 1.172
